The origin of these recorded values is patent US20250163162A1.

pSTAT3 MFI, NK cells, 10 nM (unstimulated 1315) overview
# target or test system: T1, IL10Rα/IL2Rγ receptor (human, UniProt Q13651 22-578; P31785 23-369)
# T1 sequence (looked up) 1: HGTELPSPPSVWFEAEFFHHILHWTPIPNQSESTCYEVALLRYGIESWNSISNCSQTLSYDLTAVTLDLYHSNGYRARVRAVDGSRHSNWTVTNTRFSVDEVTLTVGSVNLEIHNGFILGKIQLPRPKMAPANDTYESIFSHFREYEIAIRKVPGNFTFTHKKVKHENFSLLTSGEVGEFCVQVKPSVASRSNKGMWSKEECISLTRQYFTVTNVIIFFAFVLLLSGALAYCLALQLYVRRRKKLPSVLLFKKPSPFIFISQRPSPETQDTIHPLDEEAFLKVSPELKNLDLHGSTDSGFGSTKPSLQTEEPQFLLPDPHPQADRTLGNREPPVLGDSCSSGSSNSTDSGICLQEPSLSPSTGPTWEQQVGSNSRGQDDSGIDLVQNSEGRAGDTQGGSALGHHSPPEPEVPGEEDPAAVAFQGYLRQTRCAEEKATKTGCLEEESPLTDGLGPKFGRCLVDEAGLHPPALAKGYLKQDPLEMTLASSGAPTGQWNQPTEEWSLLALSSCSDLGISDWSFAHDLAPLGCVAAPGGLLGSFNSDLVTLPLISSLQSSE
# T1 sequence (looked up) 2: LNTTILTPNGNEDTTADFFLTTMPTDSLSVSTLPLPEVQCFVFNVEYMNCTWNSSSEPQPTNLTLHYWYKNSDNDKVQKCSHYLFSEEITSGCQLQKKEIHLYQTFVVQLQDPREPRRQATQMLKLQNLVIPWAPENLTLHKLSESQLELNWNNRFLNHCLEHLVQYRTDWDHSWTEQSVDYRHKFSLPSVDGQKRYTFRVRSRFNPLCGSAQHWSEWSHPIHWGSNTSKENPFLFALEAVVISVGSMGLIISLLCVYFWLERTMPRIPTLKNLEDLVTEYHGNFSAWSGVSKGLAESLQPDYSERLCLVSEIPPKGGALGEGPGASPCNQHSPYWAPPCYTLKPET
# experiment description: cell-based or functional assay
The figure you give is taken to be in MFI; do not add the unit.

Looking for the measured pSTAT3 MFI, NK cells, 10 nM (unstimulated 1315) of DR465(DR240-DR231) (bispecific antibody) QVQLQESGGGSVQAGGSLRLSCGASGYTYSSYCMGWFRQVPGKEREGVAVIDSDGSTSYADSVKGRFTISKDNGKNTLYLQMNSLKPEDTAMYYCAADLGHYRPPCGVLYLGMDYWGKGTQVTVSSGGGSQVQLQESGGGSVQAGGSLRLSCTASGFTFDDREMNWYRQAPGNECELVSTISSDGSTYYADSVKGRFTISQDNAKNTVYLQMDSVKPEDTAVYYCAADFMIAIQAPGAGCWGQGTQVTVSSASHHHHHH , can you help?
2040

How about this binder: DR471(DR241-DR231) (bispecific antibody) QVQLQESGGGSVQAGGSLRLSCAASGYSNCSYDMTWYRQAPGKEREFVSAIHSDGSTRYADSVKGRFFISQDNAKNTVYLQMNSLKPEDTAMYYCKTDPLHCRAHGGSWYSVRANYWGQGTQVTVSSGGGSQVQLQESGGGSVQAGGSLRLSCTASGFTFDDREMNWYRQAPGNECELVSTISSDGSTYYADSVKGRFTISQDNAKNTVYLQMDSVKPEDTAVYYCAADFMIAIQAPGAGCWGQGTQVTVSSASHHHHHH
2000

How about this binder: DR441(DR236-DR231) (bispecific antibody) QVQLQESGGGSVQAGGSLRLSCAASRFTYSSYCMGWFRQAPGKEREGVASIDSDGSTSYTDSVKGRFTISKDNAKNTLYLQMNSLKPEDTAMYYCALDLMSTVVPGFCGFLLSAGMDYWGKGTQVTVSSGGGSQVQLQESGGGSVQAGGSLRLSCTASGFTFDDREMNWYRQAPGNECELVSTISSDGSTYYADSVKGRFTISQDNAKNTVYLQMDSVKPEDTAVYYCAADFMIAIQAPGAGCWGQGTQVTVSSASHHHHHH
1800

How about this binder: DR395(DR229-DR239) (bispecific antibody) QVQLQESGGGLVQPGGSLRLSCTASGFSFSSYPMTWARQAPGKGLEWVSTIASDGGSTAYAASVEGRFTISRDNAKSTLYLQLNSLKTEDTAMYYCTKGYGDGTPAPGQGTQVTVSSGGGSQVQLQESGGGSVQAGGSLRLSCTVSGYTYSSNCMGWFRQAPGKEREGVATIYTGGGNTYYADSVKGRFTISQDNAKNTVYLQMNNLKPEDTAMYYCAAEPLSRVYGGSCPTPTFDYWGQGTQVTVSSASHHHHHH
1800
